# Tested on: EKVX NSCLC
# Experiment description: NCI tumour cell line growth inhibition, 48 h
Attribute measured: TGI

CC(=O)O[C@H]1CC[C@@]2(C)C(=CC[C@@H]3[C@@H]2CC[C@]2(C)C(=O)/C(=C\c4ccccc4)C[C@@H]32)C1; > 100 µM
N#CC(C#N)=CNC(=S)Nc1ccc(S(=O)(=O)Nc2nccs2)cc1; > 100 µM
COc1cc(CC2c3cc(OC)c(OC)cc3CCN2C)c(C(=O)O)cc1OC (centres undefined); > 100 µM
COc1cnc2c(c1)C(=O)c1c-2n(CCCN2CCNCC2)c(=O)c2cc(F)ccc12; 2.08 µM
Cc1c(S(=O)(=O)/N=C(\NO)Nc2ccc(Cl)cc2)sc2ccc(Cl)cc12; 25.1 µM

Given the entry "CC(=O)Nc1ccc(/C=C/C(=O)c2sc(-n3nc(-c4ccccc4)cc3-c3ccccc3)nc2C)cc1" , report its measured TGI.
> 100 µM

Next molecule up: "N#CCC1CCN(c2nc(Nc3ccc(N4CCC(O)CC4)cc3)c3c(=O)[nH]ncc3n2)CC1"
> 100 µM

Next molecule up: O=c1ccn([C@@H]2C[C@H](CO)CS(=O)C2)c(=O)[nH]1 (some centres undefined)
> 100 µM

Next molecule up: CC(=O)OC(C(=O)NNC(=O)OC(C)(C)C)c1ccccc1 (centres undefined)
> 100 µM

* * *

# Tested on: COLO 205 colon
# Experiment description: NCI tumour cell line growth inhibition, 48 h; in the data active = GI50 below about 0.43 µM; inactive = the rest
Your response should consist of one outcome taken from active, inactive

Query: recorded result category for "N#CSc1c[nH]c2cccc(/C=C/C(=O)/C=C(O)/C=C/c3cccc4[nH]cc(SC#N)c34)c12" in this test
active

Next molecule up: "COc1cccc(-c2cc(-c3ccc(Nc4nc(Nc5ccc(Cl)cc5)nc(Nc5ccc(Cl)cc5)n4)cc3)nc(N)c2C#N)c1"
inactive

Next molecule up: "COc1cc2nc(NC3CCC3)nc(NC3CCN(C(C)C)CC3)c2cc1OC"
inactive

Next molecule up: "COc1cc(F)c(F)c(F)c1C(=O)c1cnc(NC2CCN(S(C)(=O)=O)CC2)nc1N"
inactive

Next molecule up: "Nc1nc(-c2ccccn2)c(-c2ccc3ncccc3n2)s1"
inactive

Next molecule up: "Cc1n[nH]c(C)c1-c1c(C)n[nH]c1C"
inactive

Next molecule up: "CCc1ccc2cc3c(ccc4ccccc43)c3c2c1CC3"
inactive

Next molecule up: "CC(=O)Nc1ccc(/C=C/C(=O)c2sc(-n3nc(-c4ccccc4)cc3-c3ccccc3)nc2C)cc1"
inactive

Next molecule up: "C=C(CN1CCc2ccccc2C1)c1ccc(C(=O)Nc2cccc(N)c2)cc1"
inactive

Next molecule up: "FC(F)(F)c1ccc(-c2cnc(-c3nn[nH]n3)nc2NC2CCCCCC2)cc1"
inactive

* * *

List of TGI values.
# Tested on: MDA-N
# Experiment description: NCI tumour cell line growth inhibition, 48 h

Here is how some compounds turned out for TGI.
CC(C)C1CC(CO)(CNc2nc(N)nc(Cl)c2C=O)C1 (stereo not given); 9.31 µM
COc1cc(Nc2nc(NS(=O)(=O)c3cc(C)c(Cl)cc3S)n[nH]2)cc(OC)c1OC; > 100 µM

Given the entry CC(=O)OC(C(=O)NNC(=O)OC(C)(C)C)c1ccccc1 (stereo not given) , report its measured TGI.
> 100 µM

Next compound up: O=C(c1ccccc1)N1N=C(C(F)(F)F)CC1(O)C(F)(F)F (stereo not given)
> 100 µM

* * *

# System: SNB-75 CNS
# Experiment description: NCI tumour cell line growth inhibition, 48 h
List of GI50 values.

Here is how some compounds turned out for GI50.
COc1cc(/C=C2\C(=O)Nc3ccc(O)cc32)cc(OC)c1OC; 8540 nM
COc1cc(C(=O)N[C@@H]2CCCN(C)C2)ccc1Nc1ncc2c(n1)N(C1CCCC1)CC(C)(C)C(=O)N2C; 134 nM
CC(=O)Nc1ccc(/C=C/C(=O)c2sc(-n3nc(-c4ccccc4)cc3-c3ccccc3)nc2C)cc1; > 100000 nM
CC(=O)Nc1ccc(S(=O)(=O)N2C(=O)CCC2C(=O)Nc2ccccc2)cc1 (stereo not given); 1630 nM

Continue with the next compound.
Given the entry "O=c1c2cc(F)ccc2sc2c(NCCCNCCO)nc3ccc(F)cc3c12" , report its measured GI50.
1510 nM

* * *

# Tested on: M14 melanoma
# Experiment description: NCI tumour cell line growth inhibition, 48 h
List of TGI values.

Here is how some compounds turned out for TGI.
O=[N+]([O-])C1=Cc2c(O)ccc(O)c2C2c3ccccc3NC12 (stereo unspecified); 28.2 µM
COC1=C(OC)C(=O)c2cc(C)c(=O)c(C)cc2C1=O; 30.8 µM
N#CN1CCC2CC(=O)CCC2C1 (stereo unspecified); > 100 µM
O=C(Nc1cc(Cl)ccc1Cl)c1cc2ccccc2oc1=O; > 100 µM
COc1cc(C(=O)N[C@@H]2CCCN(C)C2)ccc1Nc1ncc2c(n1)N(C1CCCC1)CC(C)(C)C(=O)N2C; 0.769 µM

For M14 melanoma, provide TGI of "CCc1c(N=[N+]=[N-])c2ccccc2oc1=O" please.
> 100 µM

Next compound up: "N#CC(C#N)=CNC(=S)Nc1ccc(S(=O)(=O)Nc2nccs2)cc1"
> 100 µM

Next compound up: C[C@H]1CC(=O)C[C@@H]2CC[C@@H]3[C@H](CC[C@]4(C)C(OC(=O)c5cccc6c(=O)c7ccccc7[nH]c56)CC[C@@H]34)[C@]21C (stereo partly specified)
> 100 µM

* * *

# Test system: SK-OV-3 ovarian
# Experiment description: NCI tumour cell line growth inhibition, 48 h
List of TGI values.
Write the number in µM without appending the unit.

Here is how some compounds turned out for TGI.
O=P(c1ccccc1)(c1ccccc1)C1CC=C2CCCCCC2C1 (stereo not given); 85.9
CC1(C)OC2OC(/C=C/[N+](=O)[O-])C3OC(C)(C)OC3C2O1 (stereo not given); 34.8
CCN(CC)CCN1C(=O)c2cccc3cc(N)cc(c23)C1=O; 69.3

Given the entry "O=C1C/C(=C\c2ccccc2)C(=O)c2ccccc2N1" , report its measured TGI.
68

* * *

# Tested on: MDA-N
# Experiment description: NCI tumour cell line growth inhibition, 48 h
Where a SMILES comes first, the peptide text is derived from it. The star is where a group is joined. Boc = CC(C)(C)OC(=O)*; OtBu = CC(C)(C)O*
Attribute measured: TGI

Here is how some compounds turned out for TGI.
CC(C)(C)OC(=O)CC(NC(=O)OC(C)(C)C)C(=O)NC(Cc1ccccc1)C(N)=O (centres undefined) (Boc-Asp(OtBu)-Phe-NH2; configuration not given here); > 100 µM
CC(C)c1cc(C(C)C)c(S(=O)(=O)N/N=C2\CC3CCC2(C)C3(C)C)c(C(C)C)c1 (centres undefined); 64.8 µM
CCOP(=O)(OCC)/C(F)=C/c1ccc(F)cc1; > 100 µM
CCOc1cc(NC(C)=O)ccc1C(=O)NN1C(=O)/C(=C/c2ccc(Cl)cc2)N=C1c1ccccc1; > 100 µM

Continue with the next compound.
For MDA-N, provide TGI of NC(C(=O)O)C(O)c1cnc[nH]1 (centres undefined) please.
> 100 µM

* * *

# Tested on: M14 melanoma
# Experiment description: NCI tumour cell line growth inhibition, 48 h
Attribute measured: TGI

CC(=O)OCCn1c(Cc2ccc(Cl)cc2)nn(C(C)=O)c1=O; > 100 µM
CC(C)CCNC(=O)c1ccc(CNC(=O)/C=C/c2ccc3c(c2)-c2ccccc2C3)cc1; > 100 µM

Given the entry O=C1N(c2ccccc2)C2(O)C(=O)c3ccccc3C2(O)N1c1ccccc1 (stereo not given) , report its measured TGI.
> 100 µM

Next molecule up: O=C(O)OC12CCCCCC1C(=O)C1CCCCC12 (stereo not given)
> 100 µM

Next molecule up: "O=C(/C=C/c1c[nH]c2ccccc12)c1ccccc1O"
27 µM

* * *

# System: NCI-H226 lung
# Experiment description: NCI tumour cell line growth inhibition, 48 h
Attribute measured: TGI (µM)
Write the number in µM without appending the unit.

CCn1nc(C#Cc2c(C)ccc3c(Nc4ccc(Cl)cc4)nccc23)c2c(N)ncnc21; 12.9

Continue with the next compound.
Given the entry "COC1=C(OC)C(=O)c2cc(C)c(=O)c(C)cc2C1=O" , report its measured TGI.
39.3

* * *

# Tested on: UACC-62 melanoma
# Experiment description: NCI tumour cell line growth inhibition, 48 h; in the data active means GI50 below about 0.43 µM; inactive means the rest
Your response should consist of one outcome taken from 1 = active, -1 = inactive

Known results for molecules:
COc1ccc2c(c1)OCC1c3cc(OC)ccc3OC21 (stereo not drawn); -1
CC(=O)Nc1ccc(S(=O)(=O)N2C(=O)CCC2C(=O)Nc2ccccc2)cc1 (stereo not drawn); 1
CC1(C)CC[C@]2(C(=O)O)CC[C@]3(C)C(=CC[C@@H]4[C@@]5(C)C/C(=C/c6cccnc6)[C@H](O)C(C)(C)[C@@H]5CC[C@]43C)[C@@H]2C1; -1
O=C(c1ccco1)c1c(C(F)(F)F)n([O-])c2cc(Cl)c(Cl)cc2[n+]1=O; -1
Cc1n[nH]c(C)c1-c1c(C)n[nH]c1C; -1
O=c1[nH]c2c(ccc3cnccc32)c2c1CCC2; 1

Read the next record carefully.
Query: recorded result category for "COc1cc(-c2nn(-c3cccc(NC(=O)NCCNC(=O)c4ccccc4)c3)cc2-c2ccncc2)ccc1Cl" in this test
-1
